src = paper PMC9302689

Biological target: NMDA receptor
Assay: In vitro binding affinity, NMDA receptor
Details: read-out: Ki, NMDA receptor; preclinical in vitro panel
METRIC NAME: Ki (µM)

{"columns": ["COMPOUND", "ENDPOINT RESULT"],
 "data": [
  ["CN1CCC23CCCCC2C1Cc1ccc(C(N)=O)cc13 (stereo not shown)", 7.44]
]}

----------
Target: hERG channel (Homo sapiens, UniProt Q12809)
Sequence (Q12809 whole entry): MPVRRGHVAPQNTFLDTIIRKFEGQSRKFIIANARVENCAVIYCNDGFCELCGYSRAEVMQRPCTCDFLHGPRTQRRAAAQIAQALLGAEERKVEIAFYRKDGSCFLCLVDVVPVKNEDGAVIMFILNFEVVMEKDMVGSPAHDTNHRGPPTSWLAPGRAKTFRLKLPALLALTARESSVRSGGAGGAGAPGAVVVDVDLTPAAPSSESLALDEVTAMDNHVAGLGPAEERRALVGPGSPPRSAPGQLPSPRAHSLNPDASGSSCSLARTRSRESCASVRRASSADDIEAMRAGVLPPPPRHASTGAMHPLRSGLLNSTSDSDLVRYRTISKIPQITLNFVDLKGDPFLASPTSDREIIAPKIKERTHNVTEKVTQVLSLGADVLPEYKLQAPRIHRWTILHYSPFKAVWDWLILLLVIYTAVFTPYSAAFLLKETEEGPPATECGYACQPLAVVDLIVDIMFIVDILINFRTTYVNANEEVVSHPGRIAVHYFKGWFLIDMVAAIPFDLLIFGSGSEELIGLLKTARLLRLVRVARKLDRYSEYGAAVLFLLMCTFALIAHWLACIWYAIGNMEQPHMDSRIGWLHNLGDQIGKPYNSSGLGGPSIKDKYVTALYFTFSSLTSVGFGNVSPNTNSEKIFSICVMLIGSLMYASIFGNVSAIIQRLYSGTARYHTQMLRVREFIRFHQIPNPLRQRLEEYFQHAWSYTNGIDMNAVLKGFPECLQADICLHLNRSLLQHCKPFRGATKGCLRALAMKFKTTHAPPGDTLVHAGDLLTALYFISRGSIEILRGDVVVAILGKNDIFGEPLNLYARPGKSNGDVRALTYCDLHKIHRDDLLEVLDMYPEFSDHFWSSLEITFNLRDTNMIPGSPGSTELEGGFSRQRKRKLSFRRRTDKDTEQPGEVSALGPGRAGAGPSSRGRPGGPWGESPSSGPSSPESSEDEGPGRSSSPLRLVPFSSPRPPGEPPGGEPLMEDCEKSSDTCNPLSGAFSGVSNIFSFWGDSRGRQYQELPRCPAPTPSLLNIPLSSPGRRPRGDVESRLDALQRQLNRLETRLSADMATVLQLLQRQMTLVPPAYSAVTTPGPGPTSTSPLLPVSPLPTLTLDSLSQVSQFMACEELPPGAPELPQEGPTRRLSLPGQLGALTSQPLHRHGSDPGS
Test: In vitro hERG channel testing
Assay type: biochemical
Settings: read-out: hERG IC50
pIC50: −log10 of the molar value.
METRIC NAME: pIC50

{"columns": ["COMPOUND", "ENDPOINT RESULT"],
 "data": [
  ["CN1CCC23CCCCC2C1Cc1ccc(C(N)=O)cc13 (stereo not shown)", 3.72]
]}
